Target: UniProt:P56726
Sequence (P56726 33-793): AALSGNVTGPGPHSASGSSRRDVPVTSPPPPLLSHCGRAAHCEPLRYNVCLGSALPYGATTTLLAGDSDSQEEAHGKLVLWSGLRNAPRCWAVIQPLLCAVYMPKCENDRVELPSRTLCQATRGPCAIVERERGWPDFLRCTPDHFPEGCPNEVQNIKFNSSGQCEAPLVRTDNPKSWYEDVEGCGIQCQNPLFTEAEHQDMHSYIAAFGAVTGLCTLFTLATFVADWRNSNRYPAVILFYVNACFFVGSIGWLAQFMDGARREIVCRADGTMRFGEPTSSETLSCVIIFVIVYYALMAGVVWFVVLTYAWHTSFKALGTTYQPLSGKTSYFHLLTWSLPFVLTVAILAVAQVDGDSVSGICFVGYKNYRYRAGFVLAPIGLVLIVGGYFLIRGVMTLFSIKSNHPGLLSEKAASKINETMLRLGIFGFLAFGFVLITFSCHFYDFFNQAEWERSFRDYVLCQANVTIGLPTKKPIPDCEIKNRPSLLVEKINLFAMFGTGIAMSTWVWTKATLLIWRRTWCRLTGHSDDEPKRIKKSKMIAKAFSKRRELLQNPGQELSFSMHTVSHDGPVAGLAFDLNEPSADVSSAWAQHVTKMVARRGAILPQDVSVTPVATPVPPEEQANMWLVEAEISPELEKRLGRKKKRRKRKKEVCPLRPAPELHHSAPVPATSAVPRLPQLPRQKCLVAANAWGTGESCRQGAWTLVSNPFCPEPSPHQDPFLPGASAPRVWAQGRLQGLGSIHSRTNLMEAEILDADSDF
Experiment: displacement of BODIPY-cyclopamine
parameter: IC50 (µM)
The reply should be a number in µM, with the unit left off.

Recorded IC50 for `O=[N+]([O-])c1ccc(S(=O)(=O)N2CCN(c3ccccc3)CC2)cc1` , please?
88

The values you see were collected from paper PMC6954722.
